Property: melting point

>>> df
                                   compound  reported_value
0  COc1cncnc1N1CCN(C(=O)OC(C)(C)C)CC1C (stereo not given)     70 to 72 °C
1                       O=Cc1sccc1Sc1ccccc1    99 to 100 °C
2                   N#Cc1ccccc1OCCCCCC(=O)O     77 to 80 °C
3  CC(C)(C)N1C(=O)C(=O)N(c2cc(Cl)cc(Cl)c2)S1=O (stereo not given)          182 °C
4  COc1cc2ncnc(NC3=CC(=O)C(Oc4ccccc4)=CC3=O)c2cc1OC   228 to 234 °C
5  O=C1NC(=O)C(c2ccc(Cl)c(Cl)c2)N1 (stereo not given)   223 to 225 °C
6  COc1ccc(CNc2nc(N3CCCC3CO)nc(OC)c2C(=O)NCc2ncccn2)cc1Cl (stereo not given)   153 to 154 °C
7  O=C(C=Cc1cccnc1)NCCCCC1CCN(C2c3ccccc3CSc3ccccc32)CC1 (stereo not given)     89 to 91 °C
8  CN(CCOc1ccc(C=C2SC(=O)NC2=O)cc1)c1nc2ccccc2o1   227 to 229 °C
9  CCCOc1ccccc1-c1nc2c(C(=O)O)cccc2c(=O)[nH]1   195 to 197 °C

input: Can you look up the measured melting point of Cc1occc1C(=O)Nc1ccc(Cl)c(C=NN2CCOCC2)c1 for me?
output: 121 to 123 °C

input: Can you look up the measured melting point of O=c1c(-c2ccc(F)cc2)coc2cc(O)c(O)cc12 for me?
output: 296 °C

input: Can you look up the measured melting point of COc1ccc(SCCCCCCCC(=O)O)cc1 for me?
output: 66 to 68 °C

input: Can you look up the measured melting point of CCCc1c(OCCCCCCc2cc(C)c(O)c(O)c2C)ccc(C(=O)O)c1O for me?
output: 170 to 171 °C

input: Can you look up the measured melting point of O=CNc1ccccc1C1=NN(c2ccc(Cl)cc2)C(=O)C1 for me?
output: 170 to 172 °C

input: Can you look up the measured melting point of CCCCCCCOc1ccc(CCC(CO)(CCC)NC(=O)c2cc([N+](=O)[O-])cc([N+](=O)[O-])c2)cc1 (single isomer, unassigned; (-)) for me?
output: 115 to 116 °C

input: Can you look up the measured melting point of CCN(CC)CC(=O)Nc1ccc2c(c1)C(=O)c1cc(NC(=O)CN(CC)CC)ccc1C2=O for me?
output: 241 °C

input: Can you look up the measured melting point of Cn1nc(Oc2ccc([N+](=O)[O-])c(N)c2)cc1C(F)(F)F for me?
output: 91 to 92 °C

input: Can you look up the measured melting point of CC(=O)Nc1ccc(S(=O)(=O)CC(=O)C23CC4CC(CC(C4)C2)C3)cc1 for me?
output: 151 to 152 °C

input: Can you look up the measured melting point of CCn1cnc2c(Nc3cccc(F)c3)nc(NCCO)nc21 for me?
output: 184 °C

input: Can you look up the measured melting point of CNC(=O)C1CCCCN1C(=O)OC(C)(C)C (stereo not given) for me?
output: 83 to 83.5 °C

input: Can you look up the measured melting point of COc1cc(C(C)C)c(NC(=O)CN2CCN(CCSc3nc4cccc([N+](=O)[O-])c4o3)CC2)c(C(C)C)c1 for me?
output: 165 to 166 °C

input: Can you look up the measured melting point of O=C(O)Cc1ccc(C#CC#Cc2ccc(CC(=O)O)cc2)cc1 for me?
output: 91 °C

input: Can you look up the measured melting point of Cc1cc2oc(=O)c3c(c2cc1[N+](=O)[O-])CCNC3 for me?
output: 197 to 199 °C

input: Can you look up the measured melting point of N#Cc1ccc(NC(=O)C(=O)N2CCC(Cc3ccccc3)CC2)cc1 for me?
output: 109 to 112 °C

input: Can you look up the measured melting point of CC1(C)OCC[C@@H]2[C@@H](NC(=O)OCc3ccccc3)C(=O)N21 (relative stereo) for me?
output: 129 to 131 °C
